B1: HDV Ribozyme (parent)
chain: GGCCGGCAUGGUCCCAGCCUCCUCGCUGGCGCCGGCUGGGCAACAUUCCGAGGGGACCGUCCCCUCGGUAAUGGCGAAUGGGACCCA

variants of: B1; assay: self-cleavage, relative activity (ratio to wild type); higher = more cleavage; co-transcriptional
READOUT NAME: self-cleavage

>>> value_observed("G11C G81A")
0
>>> value_observed("C4G G80U")
0.0953
>>> value_observed("U27A A42U")
0
>>> value_observed("G40U G59A")
0.812
>>> value_observed("U69G A77C")
0.369
>>> value_observed("C19U C84G")
0.0332
>>> value_observed("C64A G73C")
0.256
>>> value_observed("G39C A87G")
0.204
>>> value_observed("G2A G25U")
0.161
>>> value_observed("U23G G81U")
0.117
>>> value_observed("C24A U72G")
0.364
>>> value_observed("C22U A83G")
0.12
